Measured pIC50, listed per entry for reference.
- Test system: HCV replicon 1AY93H
- test name: microbe, parasite or virus in culture
- Type: cell-based, Hepatitis C virus (HCV)
- conditions used: read-out: 1A Y93H IC50; HCV replicon 1A Y93H; Replicon Assay A
pIC50: −log10 of the molar value.

compound	pIC50
COC(=O)N[C@H](C(=O)N1CCC[C@H]1c1ncc(-c2ccc3c(c2)OC(c2cc(C)c(C)s2)n2c-3cc3cc(-c4cnc([C@@H]5C[C@H]6C[C@H]6N5C(=O)[C@@H](NC(=O)OC)C(C)C)[nH]4)ccc32)[nH]1)C(C)C (single isomer, unassigned) [Compound 501]	8.36
COC(=O)NC(C(=O)N1CCC[C@H]1c1ncc(-c2ccc3c(c2)cc2n3C(c3ccc(C4CCCC4)s3)Oc3cc(-c4cnc([C@@H]5CCCN5C(=O)[C@@H](NC(=O)OC)C(C)C)[nH]4)cc(F)c3-2)[nH]1)C1C[C@@H](C)O[C@@H](C)C1 (single isomer, unassigned) [Compound 656]	11.60
COC(=O)NC(C(=O)N1[C@@H]2C[C@@H]2C[C@H]1c1ncc(-c2ccc3c(c2)cc2n3C(c3ccc(CC4CC4)s3)Oc3cc(-c4cnc([C@@H]5CCCN5C(=O)[C@@H](NC(=O)OC)C(C)C)[nH]4)cc(F)c3-2)[nH]1)C1CCOC(C)(C)C1 (single isomer, unassigned) [Compound 419]	11.14
COC(=O)N[C@H](C(=O)N1C2CC2C[C@H]1c1ncc(-c2cc(F)c3c(c2)OC(c2ccc(C4CC4)s2)n2c-3cc3cc(-c4cnc([C@@H]5CCCN5C(=O)[C@@H](NC(=O)OC)C5C[C@@H](C)O[C@@H](C)C5)[nH]4)ccc32)[nH]1)C(C)C (single isomer, unassigned) [Compound 557]	11.33

====

- Test system: HCV replicon 2B
- test name: microbe, parasite or virus in culture
- Format: cell-based, Hepatitis C virus (HCV)
- conditions used: read-out: 2B IC50; HCV replicon 2B; Replicon Assay A
- Description: To measure cell-based anti-HCV activity of compounds of the present invention, two complimentary assays were employed using various replicons. […] The replicon RNA level was measured using real time PCR (TaqMan® EZ RT-PCR, Applied Biosystems 403028) with the following primers and probes: […] The amount of HCV replicon RNA per cell is quantified using a linear regression curve for a known nanogram (ng) amount of HCV replicon total RNA. […]
pIC50: −log10 of the molar value.
Let's look at some compounds and their measured pIC50.

compound	pIC50
COC(=O)N[C@H](C(=O)N1CCC[C@H]1c1ncc(-c2cc(C)c3c(c2)OC(c2ccc(C4CC4)s2)n2c-3cc3cc(-c4cnc([C@@H]5CCCN5C(=O)[C@@H](NC(=O)OC)C(C)C)[nH]4)ccc32)[nH]1)C(C)C (single isomer, unassigned) [Compound 751]	10.57
COC(=O)N[C@H](C(=O)N1CCC[C@H]1c1nc(-c2ccc3c(c2)OC(c2ccc(C)s2)n2c-3cc3cc(-c4c[nH]c([C@@H]5NCCN5C(=O)[C@@H](NC(=O)OC)C(C)C)n4)ccc32)c[nH]1)C(C)C (single isomer, unassigned) [Compound 700]	9.41
COC(=O)NC(C(=O)N1CCC[C@H]1c1ncc(-c2ccc3c(c2)cc2n3C(c3ccc(C4CCCC4)s3)Oc3cc(-c4cnc([C@@H]5CCCN5C(=O)[C@@H](NC(=O)OC)C(C)C)[nH]4)cc(F)c3-2)[nH]1)C1C[C@@H](C)O[C@@H](C)C1 (single isomer, unassigned) [Compound 658]	11.01
COC(=O)N[C@H](C(=O)N1CCC[C@H]1c1ncc(-c2cc(C)c3c(c2)OC(c2ccc(C4CC4)s2)n2c-3cc3cc(-c4cnc([C@@H]5C[C@H]6C[C@H]6N5C(=O)[C@@H](NC(=O)OC)C(C)C)[nH]4)ccc32)[nH]1)C(C)C (single isomer, unassigned) [Compound 754]	10.41

====

- System: HCV replicon 1AY93H
- test name: microbe, parasite or virus in culture
- Type: cell-based, Hepatitis C virus (HCV)
- conditions used: read-out: 1A Y93H IC50; HCV replicon 1A Y93H; Replicon Assay A
Decision: IC50 beneath 200 pM gives met; IC50 meeting or exceeding 200 pM gives not met.

molecule	answer label
COC(=O)N[C@H](C(=O)N1CCC[C@H]1c1ncc(-c2cc(C)c3c(c2)OC(c2cc4c(s2)CCC4)n2c-3cc3cc(-c4cnc([C@@H]5CCCN5C(=O)[C@@H](NC(=O)OC)C5C[C@@H](C)O[C@@H](C)C5)[nH]4)ccc32)[nH]1)C(C)C (single isomer, unassigned) [Compound 550]	met
COC(=O)N[C@H](C(=O)N1C[C@H](F)C[C@H]1c1nc(-c2ccc3c(c2)OC(c2ccc(C)s2)n2c-3cc3cc(-c4c[nH]c([C@@H]5C[C@H]6C[C@H]6N5C(=O)[C@@H](NC(=O)OC)C5CCOCC5)n4)ccc32)c[nH]1)C1CCOCC1 (single isomer, unassigned) [Compound 729]	not met
COC(=O)N[C@H](C(=O)N1CCC[C@H]1c1ncc(-c2ccc3c(c2)OC(c2cc4ccccc4s2)n2c-3cc3cc(-c4cnc([C@@H]5C[C@@H](F)CN5C(=O)[C@@H](NC(=O)OC)C5CCOCC5)[nH]4)ccc32)[nH]1)C1CCOCC1 (single isomer, unassigned) [Compound 812]	not met
COC(=O)N[C@H](C(=O)N1CCC[C@H]1c1cnc(-c2ccc3c(c2)cc2n3C(c3cc4ccccc4s3)Oc3cc(-c4cnc([C@@H]5CCCN5C(=O)[C@@H](NC(=O)OC)C5CCOCC5)[nH]4)ccc3-2)[nH]1)C1CCOCC1 (single isomer, unassigned) [Compound 809]	not met
COC(=O)N[C@H](C(=O)N1CCC[C@H]1c1nc(-c2cc(F)c3c(c2)OC(c2ccc(C4CC4)s2)n2c-3cc3cc(-c4c[nH]c([C@@H]5C[C@H]6C[C@H]6N5C(=O)[C@@H](NC(=O)OC)C(C)C)n4)ccc32)c[nH]1)C(C)C (single isomer, unassigned) [Compound 719]	met

====

- Test system: HCV replicon 1B
- test name: microbe, parasite or virus in culture
- Type: cell-based, Hepatitis C virus (HCV)
- conditions used: Hepatitis C virus, HCV replicon 1B; Replicon Assay B
pIC50: −log10 of the molar value.
measure name: pIC50

compound	assay result
COC(=O)NC(C(=O)N1[C@@H]2C[C@@H]2C[C@H]1c1ncc(-c2ccc3c(c2)c(F)c2n3C(c3ccc(C4CC4)s3)Oc3cc(-c4cnc([C@@H]5CCCN5C(=O)[C@@H](NC(=O)OC)C(C)C)[nH]4)ccc3-2)[nH]1)C1C[C@@H](C)O[C@@H](C)C1 (single isomer, unassigned)	11.89
COC(=O)NC(C(=O)N1[C@@H]2C[C@@H]2C[C@H]1c1ncc(-c2ccc3c(c2)cc2n3C(c3ccc(C(F)F)s3)Oc3cc(-c4cnc([C@@H]5CCCN5C(=O)[C@@H](NC(=O)OC)C(C)C)[nH]4)cc(F)c3-2)[nH]1)C1CCOC(C)(C)C1 (single isomer, unassigned)	11.62

====

- Test system: HCV replicon 1AY93H
- test name: microbe, parasite or virus in culture
- Type: cell-based, Hepatitis C virus (HCV)
- conditions used: read-out: 1A Y93H IC50; replicon 1AY93H; Replicon Assay A
pIC50: −log10 of the molar value.
# cutoff 10 applies to pIC50; >= gives fulfilled, < gives not fulfilled

molecule	answer label
COC(=O)N[C@H](C(=O)C1CCC[C@H]1c1ncc(-c2ccc3c(c2)cc2n3C(c3ccc(C(F)(F)F)s3)Oc3cc(-c4cnc([C@@H]5CCCN5C(=O)[C@@H](NC(=O)OC)C(C)C)[nH]4)cc(F)c3-2)[nH]1)C(C)C (single isomer, unassigned) [Compound 90]	not fulfilled
COC(=O)NC(C(=O)N1CCC[C@H]1c1ncc(-c2ccc3c(c2)cc2n3C(c3cc4ccccc4s3)Oc3cc(-c4cnc([C@@H]5CCCN5C(=O)[C@@H](NC(=O)OC)C5CCOCC5)[nH]4)cc(F)c3-2)[nH]1)C(C)(C)F (single isomer, unassigned) [Compound 182]	fulfilled
COC(=O)NC(C(=O)N1CCC[C@H]1c1ncc(-c2ccc3c(c2)cc2n3C(c3ccc(C(C)C)s3)Oc3cc(-c4cnc([C@@H]5CCCN5C(=O)[C@@H](NC(=O)OC)C(C)C)[nH]4)cc(F)c3-2)[nH]1)C1CCOC(C)(C)C1 (single isomer, unassigned) [Compound 242]	not fulfilled
COC(=O)N[C@H](C(=O)N1CCC[C@H]1c1ncc(-c2ccc3c(c2)OC(c2ccc(C4CC4)s2)n2c-3c(C)c3cc(-c4cnc([C@@H]5CCCN5C(=O)[C@@H](NC(=O)OC)C(C)C)[nH]4)ccc32)[nH]1)C(C)C (single isomer, unassigned) [Compound 22]	not fulfilled
COC(=O)N[C@H](C(=O)N1CCC[C@H]1c1ncc(-c2cc(F)c3c(c2)OC(c2ccc(C(C)(C)O)s2)n2c-3cc3cc(-c4cnc([C@@H]5CCCN5C(=O)[C@@H](NC(=O)OC)C(C)C)[nH]4)ccc32)[nH]1)C(C)C (single isomer, unassigned) [Compound 84]	fulfilled
COC(=O)NC(C(=O)N1CCC[C@H]1c1ncc(-c2ccc3c(c2)cc2n3C(c3ccc(C4CC4)s3)Oc3cc(-c4cnc([C@@H]5C[C@@H](F)CN5C(=O)[C@@H](NC(=O)OC)C(C)C)[nH]4)cc(F)c3-2)[nH]1)C(C)(C)F (single isomer, unassigned) [Compound 115]	fulfilled
